# target: T1, full-length human APLNR (hAPLNR) (human, UniProt P35414 1-380)
# T1 sequence: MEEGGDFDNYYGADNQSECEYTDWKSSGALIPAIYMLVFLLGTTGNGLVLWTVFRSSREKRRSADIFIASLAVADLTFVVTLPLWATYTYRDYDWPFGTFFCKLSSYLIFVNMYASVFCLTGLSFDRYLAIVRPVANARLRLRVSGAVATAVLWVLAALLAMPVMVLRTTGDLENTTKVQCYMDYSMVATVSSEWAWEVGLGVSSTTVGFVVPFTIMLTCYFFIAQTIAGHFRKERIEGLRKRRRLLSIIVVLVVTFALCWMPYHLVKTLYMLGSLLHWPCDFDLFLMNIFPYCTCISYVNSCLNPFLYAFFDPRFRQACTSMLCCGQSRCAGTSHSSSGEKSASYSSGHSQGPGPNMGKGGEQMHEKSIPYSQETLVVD
# experiment: cell-based or functional assay
% Activation at 500 nM mAb (at 7.5 uM Forskolin), CRE-luc listing for selected binders.
Numeric only. Scale: %

Known results for binders:
H2aM9226N (antibody, mouse IgG2a, V domains shown) VH: EVQLVESGGGLVQPGGSLRLSCAASGFTFSSFWMSWVRQVPGKGLEWVANIKQDGSEKYSVDSVKGRFTISRDNAKNSLYLQMNSLRAEDTAVYYCARDRFGYSFYDKGVRYYYGMDVWGQGTTVTVSS VL: DIQMTQSPSSLSVSVGDRVTITCRASQGIRNDLGWYQQKPGKAPKRLIYATSSLQSGVPSRFSGSGSGTEFTLTISGLQPEDFATYYCLQHNSYPRTFGQGTKVEIK ... 61
H2aM9224N (antibody, mouse IgG2a, V domains shown) VH: EVQLEESGGGLVQPGGSLRLSCAASGFTFTSFWMSWVRQVPGKGLQWVANIKQDGTEKYYVDSVKGRFTISRDNAKNSLYLQMNSLRAEDTAVYYCARERFGYSLFDKGVRYYYGMDVWGQGTSVTVSS VL: DIQMTQSPSSLSASVGDRVTITCRASQGIRNDLGWYQQKPGKAPKRLIYAASSLQSGVPSRFSGSGSGTEFTLTISGLQPEDFATYYCLQHNSYPRTFGQGTKVEIK ... 67

Could you now consider this next binder?
IN: Dear colleague, I am looking for the recorded % Activation at 500 nM mAb (at 7.5 uM Forskolin), CRE-luc of the following binder: H2aM9221N (antibody, mouse IgG2a, V domains shown) VH: EVQLVESGGGLVQPGGSLRLSCVASGFTFNNYWMSWVRQAPGKGLEWVANIKQDGSERYYVDSVKGRFTISRGDAKNSLYLQMKSLRAEDTAVYFCARDRFGYSFYDKGVRYYYGMDVWGQGTTVTVSS VL: DIQMTQSPSSLSASVGDRVTITCRASQGIRNDLGWYQQRPGKAPKRLIYAASSLQTGVPSRFSGSGSGTEFTLTISGLQPEDFATYYCLQHNSYPRTFGQGTKVEIR
OUT: 64
